The measured values listed here are drawn from a melting point compilation (Tetko et al.; mined from patent text by program, amines drawn as free bases though some values may be those of a salt).

ENDPOINT NAME: melting point

Lab note: measured melting point of N#Cc1cc(N)ccc1N1CCC(c2ccccc2)CC1 was 158 to 162 °C

The value of melting point measured for the compound Cc1cccc(-c2nc(C)cc(-c3ccccc3Cl)n2)n1 turned out to be 90.8 °C

The reported melting point of the compound CCCCCCCC/C=C\CCCCCCCC(=O)N[C@H]1CCCNC(=O)C1 was 66 to 67 °C

Lab book: melting point of CS(=O)(=O)c1cnc(Cl)c(Cl)c1 noted as 129 to 130 °C

Lab book: melting point of CC(C)C(C)(C(N)=O)N1C(=O)c2cccnc2C1=O (stereo unspecified) noted as 176 to 178 °C

Documented melting point of CCOC(=O)c1[nH]c(CC)c(C)c1CC(C)C : 53 to 55 °C

Reported melting point for CCOC(=O)c1cc2cccc(NC(=O)OC(C)(C)C)c2[nH]1 was 132 to 133 °C

Input COc1ccc(C(=O)N2CCN(CCc3ccc(Cl)cc3)CC2)cc1 . Output melting point: 105 to 106 °C

melting point for CCC(=O)NCCCC(=O)O is 85 to 90 °C

Entry CCNc1nc(C)c(-c2ccnc(Nc3ccc(N4CCOCC4)c(OC)c3)n2)s1 — recorded melting point = 224 to 226 °C

melting point for OCC1OC(n2cnc3c(N4CCOCC4)ncnc32)CC1F (stereo unspecified) is 175 to 178 °C

* * *

Please provide measured melting point for the entries that follow.

// field: melting point; key: CC(C)CCN1C(=O)C(N)C(=O)Nc2ccccc21 (stereo unspecified) ; value = 148 to 150 °C

Entry Cc1ccc2c(Cl)c3ccccc3nc2c1 ; melting point = 117 to 118 °C

Clc1cccc(-c2nc3ccccn3c2-c2ccnc(-c3ccc(OCCN4CCCC4)cc3)c2)c1 yielded melting point of 298 °C

// sample COc1ccc(C=O)cc1CCl , its melting point was 55 to 57 °C

melting point measured on CN1CCCC1CCN1CCN(CCC2CCCN2C)C1=C(C#N)C#N (stereo unspecified) = 121 to 123 °C

The measured melting point associated with NC1CC2=CNC=C3C=COCC1=C32 (stereo unspecified) reads 202 to 203 °C

* * *

Please respond with reported melting point for every item in the list.

Consider CN(C)C1(Cc2ccccc2)CC=C(c2[nH]c3ccccc3c2CCc2ccncc2)CC1 (stereo not given) . Its measured melting point is 154 to 157 °C

For record Clc1cc(Cl)cc(-c2nc(-c3ccccn3)no2)c1 the listed melting point is 162 to 166 °C

So for Cc1ccc2c(c1)CC(=O)c1cc(C(C)C(=O)O)ccc1S2 (stereo not given) , the logged melting point turned out to be 157 to 159 °C

melting point reported for this compound CCOC(=O)n1c(SC(F)(F)C(F)F)nc(-c2ccc(F)cc2)c1-c1ccc(F)cc1 : 137 to 139 °C

Entry CCCCN(CCCC)CC(=O)N1c2ccccc2N(CCCC)C(=O)c2cnc(-c3ccccc3)nc21 , melting point reported as 103 to 104 °C

* * *

Assignment: determine reported melting point for the given compounds.

Reported melting point ( COC(=O)C1=C(C)NC(C)=C(P2(=O)OCCCO2)C1c1ccccc1[N+](=O)[O-] (stereo not given) ) = 249 to 251 °C

// sample CCCCCCOc1ccc(-c2ncc(-c3ccc(O)c(F)c3F)cn2)cn1 , its melting point was 150 to 155 °C

Query COc1ccc(C2Sc3c(ccc4ccccc34)N(CCCN(C)C)C(=O)C2O)cc1 (stereo not given) yields melting point of 123 to 124 °C

Please fill in: melting point reported for CCCc1nc2c(N)nc3ccccc3c2n1CCCCCC(C)=O = 161 to 163 °C

Quick note, melting point for Cn1c(C(F)(F)F)cc(=O)n(-c2cc(O)c(Br)cc2F)c1=O landed at 192 °C

* * *

Answer each item with its documented melting point.

The compound listed as O=C(CC1CSCCC1=O)c1ccc(Br)cc1 (stereo not given) has a reported melting point of 87.5 to 89.5 °C

N[C@@H](CCCCN=Cc1ccccc1)C(=O)O has a reported melting point of 79 to 81 °C

The measured melting point associated with CC(C)(C)OC(=O)CN1C(=O)c2ccccc2S1(=O)=O reads 130 to 132 °C

Reported melting point for [N-]=[N+]=NCCCn1ccc(-c2ccc(F)cc2)c1-c1ccncc1 was 219 to 222 °C

Per the record, COc1ccc(N2C(=O)N(c3cccc(C(N)=O)c3)c3nc(Nc4cccc(CCN(C)C)c4)ncc3C2C)cc1 (stereo not given) has melting point of 215 to 230 °C

For record COc1ccc(N2CCN(c3ccc(-n4c(C)nn(CC(=O)c5ccc(Cl)cc5)c4=O)cc3)CC2)cc1 the listed melting point is 230 °C

Data point: CCc1cccc(C)c1S(=O)(=O)c1nn(C(=O)N(CC)CC)cc1Cl ; melting point = 68 to 72 °C

The compound listed as N#CCCNC(=O)c1cccc(-c2cccc3nn(Cc4cc(F)cc(Cl)c4)cc23)c1 shows melting point equal to 207 to 208 °C

The reported melting point of the compound O=C(O)Cc1c(-c2ccccc2)n[nH]c1-c1ccccc1 was 210 to 211 °C

Recorded result, CCOC(=O)c1ccc(N=C(Nc2ccc(C(=O)OCC)cc2)c2ccc(-c3ccccc3)cc2)cc1 , melting point: 152 to 160 °C

The compound identified as CN(C)c1cccc(Oc2ncccc2C(=O)NCc2ccccc2Cl)c1 registered its melting point at 85 to 87 °C

Notebook: Cc1ccc(CC(C)NCC(O)c2ccccc2)cc1 (stereo not given) , melting point read as 74 to 94 °C

The measured melting point associated with CC1(C)OC(=S)Nc2ccc(-c3cc(F)cc(Cl)c3)cc21 reads 204 to 205 °C

Record summary for O=[N+]([O-])c1ccc(Cl)cc1-c1nc2ccccc2o1 : reported melting point = 130 to 132 °C

The compound identified as Cc1cc(I)sc1COCP(=O)(OC(C)C)OC(C)C registered its melting point at 39 to 40 °C

Lookup result for Clc1ccc(C2c3ccc(Cl)cc3-c3ncncc32)cc1 (stereo not given) ; measured melting point: 158 to 163 °C

# melting point (compound: CCOC(=O)COc1ccc2c(c1[N+](=O)[O-])C(=O)CC2 ) is 137 to 139 °C

For reference, reported melting point for CCc1nn(CCO)c(CC)c1Cc1c(F)cccc1F stands at 70 to 71 °C

Data point: CCCCCCCCCCCCCCCCCC(=O)c1ccc(C2=NC(C)(C)CO2)c(Cl)c1 ; melting point = 57 to 60 °C

Kindly note the recorded melting point for CCOC(=O)Cc1ccc(NC(=O)C(CCO)NS(=O)(=O)c2ccc(Cl)cc2)cc1 (racemic) , which is 164 to 167 °C

* * *

Consider the following compounds; for each one, report its melting point.
Your answer is read as °C, so omit the unit and give the number.

Per the records, this compound ( Oc1ccc(Nc2nc(Cl)nc(Cl)n2)cc1Cl ) has melting point equal to 180

So for Nc1ccc2nc(N3CCOCC3)nn2c1 , the logged melting point turned out to be 165

Notebook: O=C(Nc1cscc1S(=O)(=O)c1ccc(Cl)cc1)N[C@@H](Cc1ccc(NC(=O)c2c(Cl)cccc2Cl)cc1)C(=O)O , melting point read as 202

Data point: O=C(Nc1ccc(CN2C(=O)[C@H]3CCC[C@H]3Nc3ccccc32)cc1)OCc1ccccc1 (relative stereo) ; melting point = 162

* * *

ENDPOINT NAME: melting point

The compound identified as CN1CCN(C)CC(OC(=O)c2n[nH]c3ccccc23)C1 registered its melting point at 184 to 185 °C

melting point in this record for COc1cc(Cc2cnc(NCCSCc3nc[nH]c3C)[nH]c2=O)ccn1 : 177 to 178 °C

# melting point of Cc1cc(O)n2nc(CN)nc2n1 = 204 to 207 °C

Value of melting point reported for the compound Cc1ccc(-c2ccc(N3CCCN(c4ccc(-c5ccc(C)cc5)cn4)CC3)nc2)cc1 is 245 to 247 °C

Record COc1ccc(Cl)cc1-n1c(N)nnc1-c1ccc(C(F)(F)F)cc1 , field melting point: 247 to 248 °C

So, COc1ccc(CC[C@H](N)C(=O)O)cc1F ? Its melting point was 164 to 167 °C

* * *

ENDPOINT NAME: melting point

Quick note, melting point for CS(=O)(=O)c1ccc(-c2cnn(CC(O)c3ccccc3)c(=O)c2-c2ccc(F)cc2)cc1 (centres undefined) landed at 205 to 207 °C

Form: compound = CC(C)(C)C(=O)Nc1nc(OCCCCOCc2ccccc2)ccc1C=O ; melting point = 82 to 84 °C

melting point measured on COc1ccc(C(=O)c2cccc(C)c2Cl)cc1 = 64.7 to 65.8 °C

Entry O=[N+]([O-])c1ccc(S(=O)(=O)On2nnc3ccccc32)cc1 , melting point reported as 120 to 122 °C

What the record says about COc1cc(O)c2c(c1)C1OC1CC(O)C(O)C(=O)C=CCC(C)OC2=O (centres undefined) : melting point is 173 to 174 °C

Consider O=C(Nc1ccc(Cl)cc1)c1ccc2cccnc2c1O . Its measured melting point is 207 to 209 °C

Entry COc1cccc(-c2ccc(-c3ccccc3S(=O)(=O)Nc3onc(C)c3C)cc2)n1 ; melting point = 132 to 134 °C

Recorded result, C=C1c2ccccc2CC12CCC(N1CCCCC1)CC2 (centres undefined) , melting point: 93 to 95 °C

Form: compound = C=C(C)COc1ccc2c(=O)c(C)c(-c3ccccc3)oc2c1C(=O)C=Cc1cc(OC)c(OC)c(OC)c1 ; melting point = 82 to 84 °C
